Tested on: mu opiate receptor (MOR)
Assay: MOR agonist activity using [35S]GTPγS binding assay in striatal membranes
Assay type: biochemical
Details: 0.1 μM compound
MEASURED ENDPOINT: MOR agonist activity ([35S]GTPγS binding), FLNA-Binding Compound as Agonist 0.1 μM (%)
Numeric only. Scale: %

Input line: Tell me the measured MOR agonist activity ([35S]GTPγS binding), FLNA-Binding Compound as Agonist 0.1 μM of CC1CCC(C(C)C)C(OCC(O)CN2CCSC2)C1 (centres unmarked) , please.
Output line: 155.6

Input line: Item under review: CC1CN(CC(O)COc2ccccc2C(C)C)CC(C)O1 (centres unmarked) . Reported MOR agonist activity ([35S]GTPγS binding), FLNA-Binding Compound as Agonist 0.1 μM?
Output line: 173.8

Input line: Please report the recorded MOR agonist activity ([35S]GTPγS binding), FLNA-Binding Compound as Agonist 0.1 μM for CC1CCC(C(C)C)C(OCC(O)CN2CCCC2)C1 (centres unmarked) .
Output line: 94.3

Input line: I would be grateful if you could share the reported MOR agonist activity ([35S]GTPγS binding), FLNA-Binding Compound as Agonist 0.1 μM for OC(COc1ccc(Br)c(F)c1)CN1CCCCC1 (centres unmarked) .
Output line: 70.7

Input line: Fill blank: measured MOR agonist activity ([35S]GTPγS binding), FLNA-Binding Compound as Agonist 0.1 μM of the molecule CC1CCC(C(C)C)C(OCC(O)Cn2ccc3ccccc32)C1 (centres unmarked) is ____.
Output line: 250.5

###

Test system: mu opiate receptor (MOR)
Experiment: MOR agonist activity using [35S]GTPγS binding assay in striatal membranes
Assay type: biochemical
Details: Series C-1; 0.1 μM compound, relative to DAMGO
MEASURED ENDPOINT: % DAMGO (0.1 μM) (%)
State the answer as a number, implicitly in %.

Input line: Given the compound CC(=O)c1ccc(S(=O)(=O)N2CCC3(CC2)NC(=O)C(Cc2cnc[nH]2)N3S(=O)(=O)c2ccc(C(C)=O)cc2)cc1 (stereo not shown) [Compound C0084M] , what is its reported % DAMGO (0.1 μM)?
Output line: 97.3

Input line: Param item = O=S(=O)(c1ccc(Oc2ccccc2)cc1)N1CCC2(CC1)OCCN2S(=O)(=O)c1ccc(Oc2ccccc2)cc1 [Compound C0149M] ; retrieve measured % DAMGO (0.1 μM).
Output line: 122.0

Input line: Quick one: % DAMGO (0.1 μM) of O=S(=O)(c1ccc(C(F)(F)F)cc1)N1CCC2(CC1)OCCN2S(=O)(=O)c1ccc(C(F)(F)F)cc1 [Compound C0012] ?
Output line: 54.8

Input line: Which % DAMGO (0.1 μM) is reported for this compound? O=S(=O)(c1ccc(C(F)(F)F)cc1Br)N1CCC2(CC1)OCCN2S(=O)(=O)c1ccc(C(F)(F)F)cc1Br [Compound C0071]
Output line: 160.5

###

Tested on: mu opiate receptor (MOR)
Experiment: MOR agonist activity using [35S]GTPγS binding assay in striatal membranes
Type: biochemical
Conditions: Series C-1; 1 μM compound + β-FNA, relative to DAMGO + BFNA
Protocol: To assess the mu opiate receptor (MOR) agonist activity of positive compounds from the FLNA screening, compounds were tested in a [^35S]GTPγS binding assay using striatal membranes. […] The immunocomplexes so formed were collected by incubation at 25° C. for 30 minutes with 40 μl of agarose-conjugated protein A/G beads and centrifugation at 5,000×g at 4° C. for 5 minutes. […] The radioactivity in the suspension was determined by liquid scintillation spectrometry.
Answer each item with its documented % DAMGO + BFNA.
Hi! Could you send only the number? It should be in %, unit omitted.

Input line: GET /values?readout=% DAMGO + BFNA&item= O=S(=O)(c1csc2ccccc12)N1CCC2(CC1)OCCN2S(=O)(=O)c1csc2ccccc12 [Compound C0150M]
Output line: 173.2

Input line: Which % DAMGO + BFNA reading was recorded for the compound CC(=O)c1ccc(S(=O)(=O)N2CCC3(CC2)NC(=O)C(Cc2cnc[nH]2)N3S(=O)(=O)c2ccc(C(C)=O)cc2)cc1 (stereo not drawn) [Compound C0084M] ?
Output line: 280.4

Input line: Entry CC(C)c1ccc(S(=O)(=O)N2CCC3(CC2)OCCN3S(=O)(=O)c2ccc(C(C)C)cc2)cc1 has what % DAMGO + BFNA?
Output line: 17.0

Input line: Recorded % DAMGO + BFNA for CC(=O)c1ccc(S(=O)(=O)N2CCC3(CC2)OCCN3S(=O)(=O)c2ccc(C(C)=O)cc2)cc1 , please?
Output line: 36.5

Input line: Need % DAMGO + BFNA of O=C(O)c1ccc(C(=O)N2CCC3(CC2)OCCN3S(=O)(=O)c2ccc(C(=O)O)cc2)cc1 , thanks.
Output line: 546.4

Input line: Give the measured % DAMGO + BFNA of O=S(=O)(c1ccc(Br)cc1)N1CCC2(CC1)OCCN2S(=O)(=O)c1ccc(Br)cc1 .
Output line: 182.7

Input line: For the compound shown here, COc1ccc(S(=O)(=O)N2CCOC23CCN(S(=O)(=O)c2ccc(C(C)=O)cc2)CC3)cc1 , give the reported % DAMGO + BFNA.
Output line: 182.0

Input line: # lookup: % DAMGO + BFNA of O=S(=O)(c1ccc(Cl)cc1)N1CCC2(CC1)OCCN2S(=O)(=O)c1ccc(Cl)cc1
Output line: 97.1

Input line: I am curious: what % DAMGO + BFNA value has been reported for CC(=O)c1ccc(C(=O)N2CCC3(CC2)OCCN3S(=O)(=O)c2ccc(C(C)=O)cc2)cc1 ?
Output line: 97.0

Input line: Look up % DAMGO + BFNA for this compound: NS(=O)(=O)c1ccc(S(=O)(=O)N2CCC3(CC2)OCCN3S(=O)(=O)c2ccc(S(N)(=O)=O)cc2)cc1
Output line: 482.5

Input line: Reported % DAMGO + BFNA, compound COc1ccc(S(=O)(=O)N2CCC3(CC2)OCCN3S(=O)(=O)c2ccc(OC)c(OC)c2)cc1OC : ____
Output line: 184.1

Input line: Need % DAMGO + BFNA of COc1ccc(S(=O)(=O)N2CCCC3(C2)OCCN3S(=O)(=O)c2ccc(OC)cc2)cc1 (stereo not drawn) [Compound C0145M] , thanks.
Output line: 95.3

Input line: Tell me the measured % DAMGO + BFNA of N#Cc1ccccc1S(=O)(=O)N1CCC2(CC1)OCCN2S(=O)(=O)c1ccccc1C#N , please.
Output line: 99.7

Input line: Which measured % DAMGO + BFNA value corresponds to O=S(=O)(c1cccc(OC(F)(F)F)c1)N1CCC2(CC1)OCCN2S(=O)(=O)c1cccc(OC(F)(F)F)c1 ?
Output line: 319.4

Input line: Form field: reported % DAMGO + BFNA of O=S(=O)(c1ccc(F)c(F)c1)N1CCC2(CC1)OCCN2S(=O)(=O)c1ccc(F)c(F)c1
Output line: 194.5

###

System: mu opiate receptor (MOR)
Assay: MOR agonist activity using [35S]GTPγS binding assay in striatal membranes
Assay type: biochemical
Conditions: 1 μM compound + 1 μM β-funaltrexamine
Answer each item with its documented MOR agonist activity ([35S]GTPγS binding), FLNA-Binding Compound as Agonist 1 μM + BFNA.
The response must be a number in % with no trailing unit.

Input line: Quick check: MOR agonist activity ([35S]GTPγS binding), FLNA-Binding Compound as Agonist 1 μM + BFNA of OC(COc1ccc(Br)c(F)c1)CN1CCCCC1 (stereo not shown) ?
Output line: 59.9

Input line: Entry under review: CC1CCC(C(C)C)C(OCC(O)CN2CCN(CCCN3CCOCC3)CC2)C1 (stereo not shown) . Reported MOR agonist activity ([35S]GTPγS binding), FLNA-Binding Compound as Agonist 1 μM + BFNA?
Output line: 120.8

Input line: // MOR agonist activity ([35S]GTPγS binding), FLNA-Binding Compound as Agonist 1 μM + BFNA lookup, key: CC1CN(CC(O)COc2cccc(F)c2)CC(C)O1 (stereo not shown)
Output line: 107.1

Input line: Need MOR agonist activity ([35S]GTPγS binding), FLNA-Binding Compound as Agonist 1 μM + BFNA, item OC(COc1cccc(F)c1)CN1CCc2ccccc2C1 (stereo not shown)
Output line: 33.5

Input line: # get_value(readout='MOR agonist activity ([35S]GTPγS binding), FLNA-Binding Compound as Agonist 1 μM + BFNA', item= CC1CCC(C(C)C)C(OCC(O)CN2CC(C)OC(C)C2)C1 (stereo not shown) [Compound A3333] )
Output line: 65.9

Input line: // query MOR agonist activity ([35S]GTPγS binding), FLNA-Binding Compound as Agonist 1 μM + BFNA value for entry COc1ccc(OCC(O)Cn2ccc3ccccc32)cc1 (stereo not shown)
Output line: 103.5

Input line: Recorded MOR agonist activity ([35S]GTPγS binding), FLNA-Binding Compound as Agonist 1 μM + BFNA for CC1CCC(C(C)C)C(OCC(O)CN(C(C)C)C(C)C)C1 (stereo not shown) , please?
Output line: 104.6

Input line: Can you share its MOR agonist activity ([35S]GTPγS binding), FLNA-Binding Compound as Agonist 1 μM + BFNA? I mean this compound: CC1CN(CC(O)COc2cc(F)cc(F)c2)CC(C)O1 (stereo not shown)
Output line: 140.0

Input line: Using the record for CC1CN(CC(O)COc2ccccc2)CC(C)O1 (stereo not shown) , report its MOR agonist activity ([35S]GTPγS binding), FLNA-Binding Compound as Agonist 1 μM + BFNA.
Output line: 52.2

Input line: What value of MOR agonist activity ([35S]GTPγS binding), FLNA-Binding Compound as Agonist 1 μM + BFNA has been recorded for this entry: CC1CCC(C(C)C)C(OCC(O)CN2CCc3ccccc3C2)C1 (stereo not shown)
Output line: 16.7

The values you see were collected from patent US10363239B2.
